Reference source: patent US9629822B2

Would you mind telling me the reported cytotoxicity at 5 μM of each entry?
Experiment: TZMbI assay for cell safety (cell viability and growth, CytoTox Glo)
Conditions: human, TZMbI cells, 5 μM, Experiment 2A; read-out: % decrease in viability compared to 0.1% DMSO vehicle based on viable cell luminescence
Answers are plain numbers, in %.

• COc1ccc(Br)cc1/C=C/C(=O)c1c(O)cccc1OCc1ccccc1 [Compound 8l] = 2.2
• COc1ccc(Br)cc1/C=C/C(=O)c1ccc2ccccc2c1O [Compound 8m] = 10.7

Report cytotoxicity at 5 μM for every entry below.
1. COc1ccccc1-c1cc(=O)c2c(O)cccc2o1 [Compound 12a]
2. COc1ccc(Br)cc1-c1oc2ccccc2c(=O)c1O [Compound 9b]
3. CCOc1ccc(Br)cc1-c1oc2ccccc2c(=O)c1O [Compound 9c]
4. COc1ccccc1-c1oc2ccccc2c(=O)c1O [Compound 9a]
5. COc1ccc(Cl)cc1-c1oc2ccccc2c(=O)c1O [Compound 9h]
6. COc1cc(Br)cc(-c2oc3ccccc3c(=O)c2O)c1OC [Compound 9d]
7. COc1ccc(Br)cc1-c1cc(=O)c2c(OCc3ccccc3)cccc2o1 [Compound 11b]
8. CCOc1ccc(Cl)cc1-c1oc2ccccc2c(=O)c1O [Compound 9i]

123
-7.08
-0.19
-3.31
-13.9
-7.87
-6.17
10.7

Respond only with cytotoxicity at 5 μM recorded for COc1ccc(Br)cc1-c1cc(=O)c2c(O)cccc2o1 [Compound 12b]
-3.2

---

Assay: TZMbI assay for cell safety (cell viability and growth, CytoTox Glo)
Conditions: human, TZMbI cells, 2.5 μM, Experiment 2A; read-out: % decrease in viability compared to 0.1% DMSO vehicle based on viable cell luminescence
Procedure: Assays were performed below in accordance with the procedures set forth in The Journal of Immunology, 2006, 176, pp. 6900-905; AIDS Research and Human Retroviruses, 2004, 20:11, pp. 1157-1665.^32,33 TZMbI assays for cell safety were performed to identify potential anti-viral compounds. TZMbI assays for cell safety were performed to identify potential anti-viral compounds per the methods.
Would you mind telling me the reported cytotoxicity at 2.5 μM of each entry?
The number alone won't do; follow it with the unit.

# example entries with known answers
- COc1ccc(Br)cc1/C=C/C(=O)c1c(O)cccc1OCc1ccccc1 [Compound 8l]: -0.43%
- COc1ccc(Br)cc1-c1cc(=O)c2c(O)cccc2o1 [Compound 12b]: -2.4%
- CCOc1ccc(Br)cc1-c1oc2ccccc2c(=O)c1O [Compound 9c]: -6.23%
- COc1ccccc1-c1cc(=O)c2c(O)cccc2o1 [Compound 12a]: 41.7%
- COc1ccc(Br)cc1/C=C/C(=O)c1ccc2ccccc2c1O [Compound 8m]: 17.9%
- COc1ccc(Cl)cc1-c1oc2ccccc2c(=O)c1O [Compound 9h]: -10.4%

Next:
Respond only with cytotoxicity at 2.5 μM recorded for CCOc1ccc(Cl)cc1-c1oc2ccccc2c(=O)c1O [Compound 9i]
6.19%

---

Assay: TZMbI assay for cell safety (cell viability and growth, CytoTox Glo)
Conditions: human, TZMbI cells, 40 μM, Experiment 2A; read-out: % decrease in viability compared to 0.1% DMSO vehicle based on viable cell luminescence
Description: Assays were performed below in accordance with the procedures set forth in The Journal of Immunology, 2006, 176, pp. 6900-905; AIDS Research and Human Retroviruses, 2004, 20:11, pp. 1157-1665.^32,33 TZMbI assays for cell safety were performed to identify potential anti-viral compounds. TZMbI assays for cell safety were performed to identify potential anti-viral compounds per the methods.
Would you mind telling me the reported cytotoxicity at 40 μM of each entry?
One number for each entry, in %.

• COc1cc(Br)cc(-c2oc3ccccc3c(=O)c2O)c1OC [Compound 9d] = -33.1

Report cytotoxicity at 40 μM for every entry below.
1. COc1ccc(Br)cc1-c1oc2ccccc2c(=O)c1O [Compound 9b]
2. CCOc1ccc(Br)cc1-c1oc2ccccc2c(=O)c1O [Compound 9c]
3. COc1ccc(Br)cc1-c1cc(=O)c2c(OCc3ccccc3)cccc2o1 [Compound 11b]
4. COc1ccccc1-c1oc2ccccc2c(=O)c1O [Compound 9a]

1: -29.8; 2: 64.2; 3: -29.2; 4: -25.4
